target: PLK2 (human) (UniProt Q9NYY3); experiment: radiometric filter-binding kinase assay, Kinase HotSpot; details: compound 0.5 µM; ATP 10 µM
Sequence (Q9NYY3 whole entry, looked up): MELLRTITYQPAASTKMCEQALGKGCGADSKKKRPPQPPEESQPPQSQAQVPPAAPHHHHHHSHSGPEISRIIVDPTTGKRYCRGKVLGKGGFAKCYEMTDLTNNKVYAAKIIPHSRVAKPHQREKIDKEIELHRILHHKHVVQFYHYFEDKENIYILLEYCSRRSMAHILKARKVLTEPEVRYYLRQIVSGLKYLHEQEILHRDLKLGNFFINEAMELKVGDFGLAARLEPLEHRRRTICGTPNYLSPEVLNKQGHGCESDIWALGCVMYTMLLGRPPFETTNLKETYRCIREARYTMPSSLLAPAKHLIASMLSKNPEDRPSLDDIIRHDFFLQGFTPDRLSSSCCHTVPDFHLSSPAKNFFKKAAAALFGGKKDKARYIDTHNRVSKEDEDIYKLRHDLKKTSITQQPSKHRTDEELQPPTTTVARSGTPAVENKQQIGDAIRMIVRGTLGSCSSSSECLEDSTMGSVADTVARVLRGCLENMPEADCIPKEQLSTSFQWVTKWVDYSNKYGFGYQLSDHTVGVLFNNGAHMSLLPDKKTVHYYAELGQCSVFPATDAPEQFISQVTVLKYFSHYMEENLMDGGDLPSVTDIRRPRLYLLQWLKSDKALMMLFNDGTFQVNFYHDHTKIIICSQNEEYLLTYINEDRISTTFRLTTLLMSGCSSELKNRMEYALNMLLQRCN
# residual activity per entry
# unit: % | format: bare number

Example molecules with recorded residual activity:
>  <molecule>
Cn1cnc2cc3c(Nc4cccc(Br)c4)ncnc3cc21

>  <unit-of-measure>
%

>  <measurement>
101

$$$$
>  <molecule>
O=C1NC(=O)C(c2cn(CCCO)c3ncccc23)=C1c1cnccn1

>  <unit-of-measure>
%

>  <measurement>
104

$$$$
>  <molecule>
Nc1nccc(-c2c(-c3ccc(F)cc3)ncn2C2CCNCC2)n1

>  <unit-of-measure>
%

>  <measurement>
93

$$$$
>  <molecule>
CCn1cnc2c(Nc3cccc(Cl)c3)nc(N[C@@H]3CCCC[C@@H]3N)nc21

>  <unit-of-measure>
%

>  <measurement>
95.8

$$$$
>  <molecule>
O=C(CCCc1ccc(-c2ccccc2F)cc1)Nc1ccc(O)cc1

>  <unit-of-measure>
%

>  <measurement>
102

$$$$

Incoming: // fetch PLK2 (human) (UniProt Q9NYY3) residual activity for Cn1sc(=O)n(Cc2ccccc2)c1=O
Outgoing: 106

Incoming: // fetch PLK2 (human) (UniProt Q9NYY3) residual activity for CN([C@@H](Cc1ccc(OS(=O)(=O)c2cccc3cnccc23)cc1)C(=O)N1CCN(c2ccccc2)CC1)S(=O)(=O)c1cccc2cnccc12
Outgoing: 102

Incoming: // fetch PLK2 (human) (UniProt Q9NYY3) residual activity for CC(C)[C@H](CO)Nc1nc(Nc2cc(N)cc(Cl)c2)c2ncn(C(C)C)c2n1
Outgoing: 92

Incoming: // fetch PLK2 (human) (UniProt Q9NYY3) residual activity for O=C1Nc2ccccc2/C1=C1/Nc2ccccc2/C1=N\OCCC(O)CO (configuration not stated)
Outgoing: 105

Incoming: // fetch PLK2 (human) (UniProt Q9NYY3) residual activity for COc1ccc(CNC(=O)Nc2ncc([N+](=O)[O-])s2)cc1
Outgoing: 104

Incoming: // fetch PLK2 (human) (UniProt Q9NYY3) residual activity for CC(=O)O/N=C1\C(=C2\C(=O)Nc3cc(Br)ccc32)Nc2ccccc21
Outgoing: 100

Incoming: // fetch PLK2 (human) (UniProt Q9NYY3) residual activity for O=C1NC(=O)/C(=C\c2ccc3nccnc3c2)S1
Outgoing: 95.7

Incoming: // fetch PLK2 (human) (UniProt Q9NYY3) residual activity for O=C1Nc2ccccc2/C1=C1\Nc2ccccc2\C1=N/O
Outgoing: 106
